- target-desc: T1, HLA-A*1101 (purified HLA class I molecule) (human)
- T1 construct: Purified MHC molecule
- assay-explanation: competition vs 125I standard peptide, purified HLA
measured-endpoint: relative binding ratio

The following binders have reported results that may help.
>>> value_measured("LTLIDTNRSR [HER2/neu peptide, position 181, 10 amino acids]")
"0.0005 ratio (IC50 standard/IC50 test)"
>>> value_measured("HTVPWDQLFR (also called Her2/neu.478) [HER2/neu peptide, position 478, 10 amino acids]")
"0.072 ratio (IC50 standard/IC50 test)"
>>> value_measured("LALTLIDTNR [HER2/neu peptide, position 179, 10 amino acids]")
"0.0003 ratio (IC50 standard/IC50 test)"
>>> value_measured("GVGSPYVSR [HER2/neu peptide, position 776, 9 amino acids]")
"0.0066 ratio (IC50 standard/IC50 test)"
>>> value_measured("MALESILRRR [HER2/neu peptide, position 889, 10 amino acids]")
"0.0003 ratio (IC50 standard/IC50 test)"
>>> value_measured("LVHRDLAAR [HER2/neu peptide, position 841, 9 amino acids]")
"0.0014 ratio (IC50 standard/IC50 test)"
>>> value_measured("HSCVDLDDK [HER2/neu peptide, position 632, 9 amino acids]")
"0.0007 ratio (IC50 standard/IC50 test)"

Given the entry LLNWCMQIAK [HER2/neu peptide, position 822, 10 amino acids] , report its measured relative binding ratio.
0.14 ratio (IC50 standard/IC50 test)

// data source = patent US20040018971A1
